B1: LINE1-mini (parent)
chain: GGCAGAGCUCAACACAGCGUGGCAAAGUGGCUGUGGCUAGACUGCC

variants of: B1; assay: self-cleavage, relative activity (ratio to wild type); higher = more cleavage; in vitro, sequencing; the parent is a self-cleaving ribozyme
Please mark true if the recorded self-cleavage is equal to or greater than 0.1, and false if it falls below.

Q. self-cleavage >= 0.1 for GGCAGAGCUCAACACAGCGUGGCAAAGUGGCGGUGGCUAGAUUGCC [U32G C42U] ?
A. true

Q. self-cleavage >= 0.1 for GGCAGAGCUCCACACAGCGUGGCAAAGUGGCUGUGGAUAGACUGCC [A11C C37A] ?
A. false

Q. self-cleavage >= 0.1 for GGCAGAGCUCAACACAGCAUGGCAAAGUGGCUGUGGCUAGGCUGCC [G19A A41G] ?
A. true

Q. self-cleavage >= 0.1 for GGCAGUUCUCAACACAGCGUGGCAAAGUGGCUGUGGCUAGACUGCC [A6U G7U] ?
A. true

Q. self-cleavage >= 0.1 for GGCAGAGCGCAACACAGCGUGGCAAAGUUGCUGUGGCUAGACUGCC [U9G G29U] ?
A. false

Q. self-cleavage >= 0.1 for GGGAGAGCUCAUCACAGCGUGGCAAAGUGGCUGUGGCUAGACUGCC [C3G A12U] ?
A. true

Q. self-cleavage >= 0.1 for GGCAGAGCUCAACACAGCGUGGCAAAAUGGCUGUGGCUAGACCGCC [G27A U43C] ?
A. true
